assayProtocol: in vivo
conditionParameters: male, cynomolgus monkey, iv, 3 ug/kg
Where a SMILES comes first, the peptide text is derived from it. [ ]: non-standard residue; d: D form. pGlu = O=C1CC[C@@H](C(=O)O)N1
parameterMeasured: Cmax (µg/mL)
Answer in µg/mL, number only, no unit symbol.

Looking up CC(C)C[C@H](NC(=O)[C@H](Cc1c[nH]c2ccccc12)NC(=O)CNC(=O)[C@H](Cc1ccc(O)cc1)NC(=O)[C@H](C)NC(=O)[C@H](CCC(=O)O)NC(=O)[C@H](CCC(=O)O)NC(=O)[C@H](CCC(=O)O)NC(=O)[C@H](CCC(=O)O)NC(=O)[C@H](CCC(=O)O)NC(=O)[C@H](CC(C)C)NC(=O)[C@H](Cc1c[nH]c2ccccc12)NC(=O)[C@@H]1CCCN1C(=O)CNC(=O)[C@@H]1CCC(=O)N1)C(=O)N[C@@H](CC(=O)O)C(=O)N[C@@H](Cc1ccccc1)C(N)=O [Compound B] ([pGlu]GPWLEEEEEAYGWLDF-NH2) , I see its Cmax listed as 0.027
